These data points were gathered from ChEMBL document CHEMBL1201862.

Reported values of IC50 for individual entries
experimental_system: High affinity choline transporter 1 (Homo sapiens)
Sequence (Q9GZV3 whole entry): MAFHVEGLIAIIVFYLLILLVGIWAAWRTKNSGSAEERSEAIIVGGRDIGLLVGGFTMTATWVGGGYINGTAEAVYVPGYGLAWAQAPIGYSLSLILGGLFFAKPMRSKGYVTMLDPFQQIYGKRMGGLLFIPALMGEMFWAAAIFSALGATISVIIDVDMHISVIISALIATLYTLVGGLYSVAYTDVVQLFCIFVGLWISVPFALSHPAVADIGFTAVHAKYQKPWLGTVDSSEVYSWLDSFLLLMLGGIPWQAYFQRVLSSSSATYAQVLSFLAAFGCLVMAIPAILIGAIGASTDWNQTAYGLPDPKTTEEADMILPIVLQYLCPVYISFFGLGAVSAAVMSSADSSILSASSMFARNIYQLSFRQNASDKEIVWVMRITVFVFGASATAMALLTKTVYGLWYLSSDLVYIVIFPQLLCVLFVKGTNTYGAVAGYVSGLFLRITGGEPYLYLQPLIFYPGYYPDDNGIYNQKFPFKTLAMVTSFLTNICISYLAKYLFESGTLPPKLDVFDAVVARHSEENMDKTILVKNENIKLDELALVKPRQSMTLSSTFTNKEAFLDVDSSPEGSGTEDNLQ
experiment_summary: CHT inhibitors, dose response, cell-based, 5-point CRC, membrane potential dye (AID 504840)
Type: functional
The source made the active and inactive calls.

| molecule | assay_value |
| --- | --- |
| O=C1NN(c2ccccc2)C(=O)/C1=C/c1coc2ccccc2c1=O | 5.3 µM (active) |

Please give the documented IC50 of `Cc1ccc(-n2cc(CN3CCN(Cc4nccn4C)CC3)c(-c3cccc(C)c3)n2)cc1`
10.5 µM (active)

====

experimental_system: Voltage-gated N-type calcium channel alpha-1B subunit/Amyloid beta A4 precursor protein-binding family A member 1 (Homo sapiens, UniProt Q00975+Q02410)
Sequence (Q00975 whole entry): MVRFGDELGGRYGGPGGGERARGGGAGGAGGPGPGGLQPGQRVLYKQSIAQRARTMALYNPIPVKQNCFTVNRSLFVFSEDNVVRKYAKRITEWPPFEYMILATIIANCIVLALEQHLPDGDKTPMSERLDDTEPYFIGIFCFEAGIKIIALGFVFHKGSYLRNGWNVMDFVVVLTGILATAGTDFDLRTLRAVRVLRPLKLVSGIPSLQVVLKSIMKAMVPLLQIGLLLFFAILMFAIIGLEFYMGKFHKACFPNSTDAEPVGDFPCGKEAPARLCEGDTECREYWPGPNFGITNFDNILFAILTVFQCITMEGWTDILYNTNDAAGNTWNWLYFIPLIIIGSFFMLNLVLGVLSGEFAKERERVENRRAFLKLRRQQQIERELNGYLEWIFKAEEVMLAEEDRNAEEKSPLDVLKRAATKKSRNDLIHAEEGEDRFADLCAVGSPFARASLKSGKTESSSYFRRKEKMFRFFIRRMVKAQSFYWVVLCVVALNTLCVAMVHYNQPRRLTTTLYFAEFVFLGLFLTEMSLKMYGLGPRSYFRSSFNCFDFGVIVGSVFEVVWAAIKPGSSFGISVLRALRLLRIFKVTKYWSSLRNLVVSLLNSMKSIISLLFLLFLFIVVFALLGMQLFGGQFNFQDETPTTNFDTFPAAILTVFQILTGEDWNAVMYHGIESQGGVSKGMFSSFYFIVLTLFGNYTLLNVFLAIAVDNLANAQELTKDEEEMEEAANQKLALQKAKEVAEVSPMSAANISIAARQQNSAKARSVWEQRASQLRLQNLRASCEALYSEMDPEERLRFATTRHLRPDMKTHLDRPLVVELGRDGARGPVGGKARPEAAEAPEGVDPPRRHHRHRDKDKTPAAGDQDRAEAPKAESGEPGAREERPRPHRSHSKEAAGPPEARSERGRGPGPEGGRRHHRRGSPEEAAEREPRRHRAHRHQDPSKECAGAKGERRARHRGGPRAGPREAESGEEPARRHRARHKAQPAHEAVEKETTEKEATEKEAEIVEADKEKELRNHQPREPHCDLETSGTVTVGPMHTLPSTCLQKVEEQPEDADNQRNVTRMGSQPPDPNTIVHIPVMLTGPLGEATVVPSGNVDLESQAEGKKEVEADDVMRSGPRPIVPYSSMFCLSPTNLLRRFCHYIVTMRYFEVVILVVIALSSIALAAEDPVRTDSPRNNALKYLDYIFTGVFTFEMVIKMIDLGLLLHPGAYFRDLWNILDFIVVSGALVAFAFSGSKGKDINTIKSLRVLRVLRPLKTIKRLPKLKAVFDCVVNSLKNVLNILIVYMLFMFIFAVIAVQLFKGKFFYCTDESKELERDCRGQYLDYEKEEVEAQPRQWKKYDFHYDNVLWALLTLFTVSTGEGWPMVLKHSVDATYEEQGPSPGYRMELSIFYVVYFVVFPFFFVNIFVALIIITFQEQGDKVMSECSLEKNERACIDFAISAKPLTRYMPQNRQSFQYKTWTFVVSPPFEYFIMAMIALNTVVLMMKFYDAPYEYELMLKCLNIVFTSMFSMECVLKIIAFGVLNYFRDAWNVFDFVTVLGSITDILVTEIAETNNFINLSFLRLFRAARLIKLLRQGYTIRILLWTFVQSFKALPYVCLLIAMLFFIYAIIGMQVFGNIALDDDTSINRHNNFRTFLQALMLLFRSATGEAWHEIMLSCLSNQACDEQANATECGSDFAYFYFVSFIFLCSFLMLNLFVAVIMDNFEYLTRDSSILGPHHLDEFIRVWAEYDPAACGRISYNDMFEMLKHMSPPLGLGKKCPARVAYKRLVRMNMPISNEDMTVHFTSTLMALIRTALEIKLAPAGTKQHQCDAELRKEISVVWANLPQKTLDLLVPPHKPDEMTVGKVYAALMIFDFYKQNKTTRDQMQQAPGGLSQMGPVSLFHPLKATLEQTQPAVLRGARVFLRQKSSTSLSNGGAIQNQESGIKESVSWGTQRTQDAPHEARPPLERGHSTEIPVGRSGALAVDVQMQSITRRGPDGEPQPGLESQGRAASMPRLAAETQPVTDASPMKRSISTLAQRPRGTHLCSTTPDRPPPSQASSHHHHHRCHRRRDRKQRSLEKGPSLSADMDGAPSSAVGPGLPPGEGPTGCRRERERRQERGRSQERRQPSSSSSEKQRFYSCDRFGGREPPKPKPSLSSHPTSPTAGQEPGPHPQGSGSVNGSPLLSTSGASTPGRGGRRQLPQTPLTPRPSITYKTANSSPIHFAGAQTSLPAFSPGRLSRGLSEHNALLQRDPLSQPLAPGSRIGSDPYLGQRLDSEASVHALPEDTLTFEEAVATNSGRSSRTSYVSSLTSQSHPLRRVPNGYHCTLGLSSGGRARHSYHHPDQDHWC
Sequence (Q02410 whole entry): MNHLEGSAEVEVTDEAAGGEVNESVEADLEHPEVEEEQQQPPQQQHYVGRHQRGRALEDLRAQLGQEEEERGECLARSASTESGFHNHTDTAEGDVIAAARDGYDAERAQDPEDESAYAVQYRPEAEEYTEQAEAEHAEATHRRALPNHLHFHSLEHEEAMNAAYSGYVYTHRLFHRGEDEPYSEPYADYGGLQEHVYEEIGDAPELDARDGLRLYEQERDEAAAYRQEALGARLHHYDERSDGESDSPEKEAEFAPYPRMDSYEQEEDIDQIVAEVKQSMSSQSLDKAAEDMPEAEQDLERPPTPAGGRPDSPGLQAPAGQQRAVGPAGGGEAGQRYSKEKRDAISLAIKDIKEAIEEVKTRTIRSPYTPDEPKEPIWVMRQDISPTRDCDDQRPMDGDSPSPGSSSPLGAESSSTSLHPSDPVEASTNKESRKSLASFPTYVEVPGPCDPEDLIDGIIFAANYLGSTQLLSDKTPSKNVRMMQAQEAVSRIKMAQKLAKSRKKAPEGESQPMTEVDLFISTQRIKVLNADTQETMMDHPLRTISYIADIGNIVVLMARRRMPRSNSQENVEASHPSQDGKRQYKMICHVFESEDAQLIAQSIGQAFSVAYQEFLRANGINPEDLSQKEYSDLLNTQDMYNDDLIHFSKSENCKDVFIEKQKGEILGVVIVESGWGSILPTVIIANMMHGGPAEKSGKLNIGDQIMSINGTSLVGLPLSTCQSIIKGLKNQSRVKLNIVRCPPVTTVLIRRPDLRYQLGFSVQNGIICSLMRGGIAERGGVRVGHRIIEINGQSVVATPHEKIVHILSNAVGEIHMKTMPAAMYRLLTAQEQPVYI
Format: protein assay
Activity calls are given as the source filed them.
Outcome field: choose from 1.0 for active, 0.0 for inactive

| compound | discrete_label |
| --- | --- |
| CCOC(=O)c1cc(-c2ccccc2)sc1NC(=O)COC(=O)c1cccc(S(N)(=O)=O)c1 | 0.0 |
| CC(=O)NC1=NC(=O)/C(=C/c2cn(C(C)=O)nc2-c2ccccc2)S1 | 0.0 |
| O=C1C=C(c2ccccc2)C(=O)N1Nc1ccccc1 | 1.0 |
| O=C(O)C1Nc2c(O)cccc2C2C=CCC12 (stereo unspecified) | 1.0 |
| O=C1Nc2ccccc2C(=O)C1(Cl)Cc1ccccc1 (stereo unspecified) | 0.0 |

# input for lookup
Can you look up the reported call for `O=c1[nH]c2ccccc2c(O)c1O` for me?
1.0

====

Measured AC50, listed per entry.
experiment_summary: LGR2 antagonists, dose response, cell-based, HEK293, CRE-luciferase reporter, cherry pick, set 2 (AID 743343);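 also: transfected cells were stimulated with diluted bursicon conditioned medium after compound addition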
Assay type: functional
Activity calls are given as the source filed them.

Take a look at these entries with their results.
| smiles_repr | AC50 |
| --- | --- |
| C[C@@H]1CN([C@@H](C)CO)C(=O)c2cccc(NC(=O)c3ccc(-c4nccs4)cc3)c2O[C@@H]1CN(C)C(=O)Nc1ccc(C(F)(F)F)cc1 | 43.7 µM (active) |
| COc1ccc(-n2nnnc2-c2nc3ccccc3s2)cc1 | 6.52 µM (active) |
| O=C(C[C@@H]1C[C@H]2c3cc(NC(=O)c4ccc5c(c4)OCO5)ccc3O[C@H]2[C@@H](CO)O1)NCc1ccc(Oc2ccccc2)cc1 | 32.7 µM (active) |

Let me know recorded AC50 for `O=[N+]([O-])c1ccc(Sc2nnnn2-c2ccccc2)nc1` , thanks.
14.9 µM (active)

====

experimental_system: Polyadenylate-binding protein 1 (Homo sapiens, UniProt P11940)
Sequence (P11940 whole entry): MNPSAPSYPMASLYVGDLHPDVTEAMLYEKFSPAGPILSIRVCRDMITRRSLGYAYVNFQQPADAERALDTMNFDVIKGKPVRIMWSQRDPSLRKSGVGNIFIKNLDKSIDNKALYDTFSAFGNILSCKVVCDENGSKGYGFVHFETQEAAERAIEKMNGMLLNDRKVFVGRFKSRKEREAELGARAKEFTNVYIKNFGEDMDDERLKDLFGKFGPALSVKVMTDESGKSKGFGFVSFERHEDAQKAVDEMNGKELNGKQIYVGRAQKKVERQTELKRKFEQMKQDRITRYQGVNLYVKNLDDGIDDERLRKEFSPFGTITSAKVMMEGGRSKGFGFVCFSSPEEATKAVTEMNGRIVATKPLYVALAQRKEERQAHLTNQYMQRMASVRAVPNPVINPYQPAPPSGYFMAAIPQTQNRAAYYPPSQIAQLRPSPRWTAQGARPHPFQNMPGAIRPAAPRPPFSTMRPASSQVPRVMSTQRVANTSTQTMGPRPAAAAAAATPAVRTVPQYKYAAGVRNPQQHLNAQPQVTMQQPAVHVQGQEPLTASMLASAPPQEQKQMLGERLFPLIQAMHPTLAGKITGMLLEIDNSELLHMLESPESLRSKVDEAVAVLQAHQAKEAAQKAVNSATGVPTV
experiment_summary: PABP1 MLLE–PAM2 interaction inhibitors, dose response, miRNA deadenylation inhibitor project, biochemical, fluorescence polarization, Cy5-PAM2 peptide, secondary (AID 602260)
Type: functional
measurement_context: read-out: IC50_Mean
Activity calls are given as the source filed them.
reported_metric: IC50

Report measured IC50; entry is `O=C(Cc1ccc(Br)cc1)N1CCN(c2ccccn2)CC1`
> 66 µM (inactive)

====

experimental_system: UniProtKB G5EF15
Sequence (G5EF15 whole entry): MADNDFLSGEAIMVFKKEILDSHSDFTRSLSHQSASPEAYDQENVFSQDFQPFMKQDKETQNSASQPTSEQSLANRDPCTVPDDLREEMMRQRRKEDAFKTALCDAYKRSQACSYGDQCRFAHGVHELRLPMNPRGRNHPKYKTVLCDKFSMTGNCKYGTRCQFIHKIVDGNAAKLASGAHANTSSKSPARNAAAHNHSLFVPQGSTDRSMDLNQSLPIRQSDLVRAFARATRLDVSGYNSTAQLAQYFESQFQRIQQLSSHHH
experiment_summary: inhibitors of POS-1/mex-3 RNA binding, dose response, biochemical, fluorescence polarization (AID 1964);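 also: purified POS-1 fused to maltose binding protein made in E. coli; potency of compounds blocking POS-1 binding to fluorescent RNA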
Calls of active or inactive are those of the source.
# EC50 per record follows

Known results for compounds:
| compound | EC50 |
| --- | --- |
| CCCc1c(O)nc(SCC(=O)N2CCCCC2)nc1O | > 300 µM (not active) |
| O=C(NNC(=O)c1csc(-c2cccnc2)n1)c1ccccc1 | > 300 µM (not active) |
| CCOC(=O)c1ccc(-n2c(C)ccc2C)cc1 | > 300 µM (not active) |
| CN(C)c1ccc2nc3ccc(=[N+](C)C)cc-3sc2c1 [METHYLENE BLUE ANHYDROUS] | 187 µM (active) |
| N#Cc1c(N)n(-c2ccc(C(=O)O)cc2)c2nc3ccccc3nc12 | > 300 µM (not active) |

Identify EC50 associated with the compound `Cc1cccc(NC(=O)CN2C(=O)N/C(=C\c3cccn3-c3cccc(C(=O)O)c3)C2=O)c1`
> 300 µM (not active)

Give recorded EC50. `COC(=O)c1ccc(-n2c(C)cc(C(=O)COC(=O)CNS(=O)(=O)c3ccc(C)cc3)c2C)cc1`
> 300 µM (not active)

For `CCCCN1C(=O)NC(=O)/C(=C/c2c[nH]c3ccccc23)C1=O` , write its EC50.
28.4 µM (inconclusive)

Indicate its recorded EC50; the compound in question is `COc1ccc(/N=C/c2c(O)c3ccccc3n2C(C)=O)cc1`
> 300 µM (inconclusive)

Identify measured EC50 corresponding to `Cn1cc(/C=N/n2cnc3scc(-c4ccc(Cl)cc4)c3c2=O)c2ccccc21`
> 300 µM (not active)

====

experimental_system: Cytochrome P450 2D6 (Homo sapiens, UniProt P10635);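 also: CYP2D6 member of a cytochrome P450 panel assay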
Sequence (P10635 whole entry): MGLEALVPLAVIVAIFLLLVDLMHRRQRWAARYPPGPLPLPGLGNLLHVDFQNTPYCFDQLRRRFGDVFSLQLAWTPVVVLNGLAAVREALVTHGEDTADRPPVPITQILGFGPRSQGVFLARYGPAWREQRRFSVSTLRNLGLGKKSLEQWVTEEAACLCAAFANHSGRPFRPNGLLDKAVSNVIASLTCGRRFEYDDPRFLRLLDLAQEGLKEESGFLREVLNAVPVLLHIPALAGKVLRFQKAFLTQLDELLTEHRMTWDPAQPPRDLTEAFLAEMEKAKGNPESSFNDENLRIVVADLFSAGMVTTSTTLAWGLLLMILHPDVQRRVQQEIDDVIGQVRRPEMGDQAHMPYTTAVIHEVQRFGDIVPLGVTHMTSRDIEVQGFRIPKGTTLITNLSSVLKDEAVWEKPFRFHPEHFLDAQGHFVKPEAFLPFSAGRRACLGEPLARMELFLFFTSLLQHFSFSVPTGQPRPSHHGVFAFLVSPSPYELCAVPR
reported_metric: AC50

// worked examples, AC50 included
| compound | AC50 |
| --- | --- |
| c1ccc(-c2noc(CSc3nnnn3C3CCCCC3)n2)cc1 | 17.8 µM (inconclusive) |
| Oc1ccnc2cccc(Cc3ccccc3)c12 | 0.00708 µM (inconclusive) |
| O=C(NC12CC3CC(CC(C3)C1)C2)c1ccc(COc2ccc(Cl)cc2[N+](=O)[O-])o1 | 28.2 µM (inconclusive) |
| O=c1c([N+](=O)[O-])cc(C(F)(F)F)cn1Cc1c(Cl)cccc1Cl | 25.1 µM (inconclusive) |
| Cc1ccc(NC(=O)CCc2ccc(S(=O)(=O)NC3CCCCC3)cc2)cc1 | 11.2 µM (inconclusive) |
| CCC/C=C(\CCC)C(NC(=O)c1ccc(C(=O)OC)cc1)c1ccc(C(=O)OC)cc1 (stereo unspecified) | 25.1 µM (inconclusive) |

Give me measured AC50, please, for this compound: `COc1ccc(C(=O)N2CCC3(CCN(Cc4ccccc4OC)CC3)CC2)cc1`
12.6 µM (inconclusive)

Kindly indicate its recorded AC50. Item: `CN1CCCC2(CCN(C(=O)c3ccncc3)CC2)C1`
7.94 µM (inconclusive)

Please report the measured AC50 for `O=C(CSc1nnc(-c2cccs2)n1-c1ccccc1)N1CCCC1`
7.94 µM (inconclusive)

State its AC50: `O=C1C(O)=C(C(C2=C(O)C(=O)c3ccccc3C2=O)c2ccc(Cl)cc2)C(=O)c2ccccc21`
2.51 µM (inconclusive)

Give AC50 for `COc1cc(C=O)ccc1OCCOCCOc1ccccc1Cl`
20 µM (inconclusive)

====

experimental_system: DNA dC->dU-editing enzyme APOBEC-3G (Homo sapiens, UniProt Q9HC16)
Sequence (Q9HC16 whole entry): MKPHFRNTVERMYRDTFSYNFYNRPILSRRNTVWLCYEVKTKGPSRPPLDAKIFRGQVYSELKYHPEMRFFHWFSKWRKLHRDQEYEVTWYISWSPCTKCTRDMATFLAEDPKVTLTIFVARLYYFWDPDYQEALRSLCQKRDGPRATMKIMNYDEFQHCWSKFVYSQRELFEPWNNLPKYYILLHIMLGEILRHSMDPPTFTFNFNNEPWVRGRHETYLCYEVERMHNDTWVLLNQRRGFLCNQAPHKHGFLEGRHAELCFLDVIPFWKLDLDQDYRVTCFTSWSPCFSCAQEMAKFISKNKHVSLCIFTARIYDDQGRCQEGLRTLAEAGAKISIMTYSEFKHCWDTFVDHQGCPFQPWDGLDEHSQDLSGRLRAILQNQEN
experiment_summary: Dose Response confirmation of small molecule APOBEC3G DNA Deaminase Inhibitors via a fluorescence-based single-stranded DNA deaminase assay. [Related pubchem assays (depositor defined):AID493012, AID493028]
Assay type: functional
The source made the active and inactive calls.
Hi! Could you answer with just one of these? yes (active), no (inactive)

| smiles_repr | discrete_label |
| --- | --- |
| Cc1ccc(-c2csc3n[nH]c(=S)n23)cc1 | yes |

What classification did `Cc1ccc2c(c1)-c1c(ssc1=S)C(C)(C)N2C(=O)c1ccco1` end up with in this test?
no

Check the results log: what was the call for `Nn1c(-c2cccc(Br)c2)n[nH]c1=S` ?
yes

Test call for this compound, please: `COc1ccccc1/C=C/C=N/n1c(S)nnc1-c1ccncc1`
yes

What did this assay record as the result for `CC(/C=N/n1c(S)nnc1-c1[nH]nc2c1CCC2)=C\c1ccco1` ?
yes
